# protein stability index annotations
Assay: protein stability index of a GFP-peptide fusion (yeast GPS) (PSI 1-4); higher = more stable; sorted into four equal gates, so the index is relative within each strain
Conditions: pdr5∆
endpoint: protein stability index

residues	assay-value
LEQFMERNNIGEICKNY [YDL116W/NUP84]	2.6
LGKKKNVKEEETVAKSK [RPS8A]	3.31
LIIIEKKQKLIEEQDKK [ITC1]	2.9
EEPAKEEAPAPTPAASA [FAS2]	2.82
ANSSTIRVTNSFALPFE [RPN8]	2.18
KLELINRYAYVLSSLMF [LRP1]	2.31
HAYNITFNNQDKGLLPY [RPO31]	3.09
